Biological target: T1, human PVRIG (Poliovirus Receptor Related Immunoglobulin Domain Containing Protein), full length on cells (human, UniProt Q6DKI7 41-326)
T1 construct: whole, on cells; Over-expressed on HEK293 (some pools flag-tagged) or endogenous on Jurkat, CA46, T cells, NK cells, TILs; also called hPVRIG; HEK hPVRIG
T1 sequence (looked up): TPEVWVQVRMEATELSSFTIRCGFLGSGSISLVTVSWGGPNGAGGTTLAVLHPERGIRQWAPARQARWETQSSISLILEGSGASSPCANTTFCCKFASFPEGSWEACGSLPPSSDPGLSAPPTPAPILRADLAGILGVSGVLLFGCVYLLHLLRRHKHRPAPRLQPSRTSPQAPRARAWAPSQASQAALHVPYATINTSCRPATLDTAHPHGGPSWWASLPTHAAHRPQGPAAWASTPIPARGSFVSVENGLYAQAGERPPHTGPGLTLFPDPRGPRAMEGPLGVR
Assay: FACS dose titration on PVRIG over-expressing HEK293 cells
measureName: Kd (nM)
State just the number; it will be interpreted in nM.

Example cases with answers are listed next.
CPA.7.017 human IgG1 (antibody, V domains shown) VH: QVQLVQSGAEVKKPGSSVKVSCKASGGTFNNYGISWVRQAPGKGLEWMGQIIPLFGTTKYAQKFQGRVTIAADEPTSTAYMELGSLRSEDTAIYYCARDRMAADGMAVFDYWGQGTLVTVSS VL: QSVLTQPPSVSGTPGQKVIISCSGSSSNIGRHFVFWYQQLPGTAPKLLIYKNDERPSGVPDRFSGSKSGTSASLAVSGLRSEDEADYYCSSWDAALNGVVFGGGTKLTVLG | 1.82
CPA.7.036 human IgG1 (antibody, V domains shown, also called CPA.7.36) VH: QVQLVQSGAEVKKPGSSVKVSCKASGGTFSSSAISWVRQAPGQGFEWMGGIIPIYGITDYAQKFQGRVTITTDESTSTAYMELSSLTSEDTAVYYCARDDTARRVRGVPYYYYYAMDVWGQGTTVTVSS VL: DIVMTQTPLSLPVTPGEPASISCRPSQSLLDSDDGNTYLDWYLQKPGQSPQLLIHTLSYRASGVPDRFSGSGSGTDFTLKISRVEAEDVGVYYCMQRLQFPLTFGGGTKVEIKR | 6
CPA.7.034 human IgG1 (antibody, V domains shown, also called CPA.7.34) VH: EVQLVQSGAEVKKPGASVKVSCKVSGYTLTELSMHWVRQAPGKGLEWMGGFDPEDGETIYAQKFQGRVTMTEDTSTDTAYMELSSLRSEDTAVYYCATEDPGPVAGPYYYYGMDVWGQGTTVTVSS VL: DVVMTQSPLVLPVTPGEPASISCRSSQSLLYINGYHYLDWYVQRPGQSPQLLIFLGSTRASGVPDRFSGSGSGTDFTLEISKVEAEDVGIYFCMQALQTPPTFGGGTKVEIKR | 14.2

Kd for CPA.7.016 human IgG1 (antibody, V domains shown) VH: EVQLVQSGAEVKKPGSSVKVSCKTSGGTFSSSAISWVRQAPGQGFEWMGGIIPIYGITDYAQKFQGRVTITTDESTSTAYMELSSLTSEDTAVYYCARDDTARRVRGVPYYYYYAMDVWGQGTTVTVSS VL: EIVLTQSPGTLSLSPGERATLSCRASQSVSSYLAWYQQKPGQAPRLLIYDASNRATGIPARFSGSGSGTDFTLTISSLQSEDFAVYYCQQYDDWPQTFGQGTRLEIKR is 22

# Kd of CPA.7.038 human IgG1 (antibody, V domains shown) VH: QVQLVQSGAEVKKPGSSVKVSCKASGGTFSSSAISWVRQAPGQGFEWMGGIIPIYGITDYAQKFQGRVTITTDESTSTAYMELSSLTSEDTAVYYCARDDTARRVRGVPYYYYYAMDVWGQGTTVTVSS VL: DIQMTQSPSSLSASVGDRVTITCQASRDISDSLSWYQQKPGKAPKLLIFDASNLKTGVSSRFSGSGSGTDFTFTISSLQPEDIATYYCHQYDNLPLTFGGGTKVEIKR = 20.3

Measured Kd of CPA.7.024 human IgG1 (antibody, V domains shown) VH: EVQLVQSGAEVKKPGSSVKVSCKASGGTFSSYAISWVRQAPGQGLEWMGGIIPIFGTANYAQKFQGRVTITADESTSTAYMELSSLRSEDTAVYYCARDAYYYDSSGYYNPDAFDIWGQGTMVTVSS VL: DVVMTQSPLSLPVTPGEPASISCRSSQSLLHSNGYNYLDWYLQKPGQSPQLLIYLGSSRASGVPDRFSGSVSGTDFTLKISRVEAEDVGVYYCMQGLQTPRTFGRGTKLEIKR : 9.08
